# EXPERIMENTAL SYSTEM: T1, recombinant human activated Factor VII (FVIIa) (human, UniProt P08709 61-212; P08709 213-466, ten glutamate residues of the Gla domain may be gamma-carboxylated)
# T1 construct: chains tethered by a disulfide bond; also called Factor VIIa; rFVIIa
# T1 sequence 1: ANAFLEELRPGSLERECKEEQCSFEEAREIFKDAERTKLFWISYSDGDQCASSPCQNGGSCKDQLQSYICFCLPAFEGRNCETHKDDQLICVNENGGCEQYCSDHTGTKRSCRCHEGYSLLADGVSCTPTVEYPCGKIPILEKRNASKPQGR
# T1 sequence 2: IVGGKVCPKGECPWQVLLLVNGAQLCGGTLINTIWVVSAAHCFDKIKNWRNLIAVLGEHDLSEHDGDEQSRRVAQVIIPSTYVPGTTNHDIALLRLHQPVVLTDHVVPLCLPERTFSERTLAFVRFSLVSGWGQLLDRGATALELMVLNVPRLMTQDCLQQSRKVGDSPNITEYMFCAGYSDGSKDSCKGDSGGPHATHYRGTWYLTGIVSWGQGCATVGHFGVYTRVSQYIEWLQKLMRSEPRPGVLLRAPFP
# ASSAY TEXT: BLI (Fortebio)
Grouping by measured Kd is done with the following cut points: bucket 1 (below 2 nM), bucket 2 (2 nM to below 20 nM), bucket 3 (20 nM or more)

Below, 3 binders whose answers are already recorded.
{"columns": ["BINDER", "DISCRETE LABEL"],
 "data": [
  ["VH SEQ ID NO 578 / VL SEQ ID NO 454 (antibody, IgG4, V domains shown, humanized 11F2; IgG4 S228P/kappa) VH: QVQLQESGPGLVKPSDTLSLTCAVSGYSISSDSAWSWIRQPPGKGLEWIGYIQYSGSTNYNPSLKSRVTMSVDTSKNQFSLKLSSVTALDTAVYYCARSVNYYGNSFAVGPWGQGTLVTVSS VL: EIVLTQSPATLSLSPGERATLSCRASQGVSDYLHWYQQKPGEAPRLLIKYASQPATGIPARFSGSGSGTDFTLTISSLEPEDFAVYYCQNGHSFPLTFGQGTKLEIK", "bucket 3"],
  ["VH SEQ ID NO 650 / VL SEQ ID NO 390 (antibody, IgG4, V domains shown, humanized 11F2; IgG4 S228P/kappa) VH: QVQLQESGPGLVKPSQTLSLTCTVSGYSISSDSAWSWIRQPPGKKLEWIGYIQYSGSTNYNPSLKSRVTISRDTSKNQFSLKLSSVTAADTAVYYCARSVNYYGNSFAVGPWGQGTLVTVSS VL: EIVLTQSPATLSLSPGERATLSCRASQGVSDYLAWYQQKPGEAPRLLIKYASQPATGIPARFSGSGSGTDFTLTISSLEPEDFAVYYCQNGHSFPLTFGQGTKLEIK", "bucket 3"],
  ["VH SEQ ID NO 546 / VL SEQ ID NO 502 (antibody, IgG4, V domains shown, humanized 11F2; IgG4 S228P/kappa) VH: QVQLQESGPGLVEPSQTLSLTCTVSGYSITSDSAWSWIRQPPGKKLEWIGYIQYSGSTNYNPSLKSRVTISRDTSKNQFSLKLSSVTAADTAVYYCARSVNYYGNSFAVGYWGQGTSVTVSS VL: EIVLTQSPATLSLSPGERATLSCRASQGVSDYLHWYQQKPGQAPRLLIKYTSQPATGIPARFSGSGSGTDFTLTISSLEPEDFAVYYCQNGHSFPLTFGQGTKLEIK", "bucket 1"]
]}

Task: Where would VH SEQ ID NO 530 / VL SEQ ID NO 310 (antibody, IgG4, V domains shown, humanized 11F2; IgG4 S228P/kappa) VH: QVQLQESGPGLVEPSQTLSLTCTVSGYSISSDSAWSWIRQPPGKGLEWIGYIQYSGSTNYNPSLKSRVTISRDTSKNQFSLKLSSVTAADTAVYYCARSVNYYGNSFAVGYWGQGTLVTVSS VL: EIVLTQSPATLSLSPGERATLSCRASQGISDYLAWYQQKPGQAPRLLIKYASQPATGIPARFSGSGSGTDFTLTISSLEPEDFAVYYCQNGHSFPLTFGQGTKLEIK land among the classes by reported Kd?
Result: bucket 2

Task: Where would VH SEQ ID NO 594 / VL SEQ ID NO 318 (antibody, IgG4, V domains shown, humanized 11F2; IgG4 S228P/kappa) VH: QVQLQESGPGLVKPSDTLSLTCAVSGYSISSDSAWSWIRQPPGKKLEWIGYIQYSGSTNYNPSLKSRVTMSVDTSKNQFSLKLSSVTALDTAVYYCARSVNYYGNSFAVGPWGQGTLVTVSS VL: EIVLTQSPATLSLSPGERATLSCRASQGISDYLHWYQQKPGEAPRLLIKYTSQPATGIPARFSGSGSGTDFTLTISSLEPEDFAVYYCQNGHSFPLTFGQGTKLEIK land among the classes by reported Kd?
Result: bucket 3
